Catalogue of Binding activity (absorbance at 492 nm) readings, one per entry.
- subject.of.test: Influenza virus A/Brisbane/59/2007 (H1N1) (Influenza A virus A/Brisbane/59/2007 (H1N1))
- test: ELISA on coated viral particles

binder: Group 57 representative clone F083-103, Fab-cp3-type antibody (Fab, V domains shown) VH: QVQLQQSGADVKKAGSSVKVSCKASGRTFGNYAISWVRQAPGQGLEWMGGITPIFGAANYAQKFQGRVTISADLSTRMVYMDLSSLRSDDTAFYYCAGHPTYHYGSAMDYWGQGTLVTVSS VL: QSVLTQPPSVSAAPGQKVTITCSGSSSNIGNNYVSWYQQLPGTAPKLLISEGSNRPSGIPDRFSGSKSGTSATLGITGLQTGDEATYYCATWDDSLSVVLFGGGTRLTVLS
Binding activity (absorbance at 492 nm): 2.39

binder: Group 42 representative clone F083-249, Fab-cp3-type antibody (Fab, V domains shown) VH: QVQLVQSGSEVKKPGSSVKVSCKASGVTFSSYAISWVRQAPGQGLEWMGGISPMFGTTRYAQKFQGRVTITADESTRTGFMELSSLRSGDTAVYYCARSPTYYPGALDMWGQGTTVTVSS VL: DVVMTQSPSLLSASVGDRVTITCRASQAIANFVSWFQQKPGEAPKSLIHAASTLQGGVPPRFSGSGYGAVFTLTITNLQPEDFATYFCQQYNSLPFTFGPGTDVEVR
Binding activity (absorbance at 492 nm): 3.02
